experimental.system: CYP3A4 (Homo sapiens, UniProt P08684)
Sequence (P08684 whole entry): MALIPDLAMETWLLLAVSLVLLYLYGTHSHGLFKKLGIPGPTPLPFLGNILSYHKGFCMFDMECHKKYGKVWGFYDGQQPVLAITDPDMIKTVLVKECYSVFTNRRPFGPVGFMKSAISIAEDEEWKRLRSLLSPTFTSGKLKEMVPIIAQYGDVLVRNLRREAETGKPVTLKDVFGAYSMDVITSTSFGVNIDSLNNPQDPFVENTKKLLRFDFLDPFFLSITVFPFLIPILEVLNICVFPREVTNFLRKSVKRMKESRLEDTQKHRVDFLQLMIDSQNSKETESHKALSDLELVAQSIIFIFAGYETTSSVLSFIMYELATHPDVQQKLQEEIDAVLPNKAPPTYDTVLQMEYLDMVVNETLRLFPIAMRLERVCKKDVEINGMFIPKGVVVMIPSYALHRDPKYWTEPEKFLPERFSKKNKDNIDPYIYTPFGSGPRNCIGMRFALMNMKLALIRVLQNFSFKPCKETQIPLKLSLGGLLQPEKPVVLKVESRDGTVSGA
assay.comment: Inhibition of recombinant human CYP3A4 assessed as residual activity at 1 uM in the presence of NADPH incubated for 60 mins by LC-MS/MS analysis relative to control
Type: ADME
stated.conditions: read-out: Activity
experimental.endpoint: activity at 1 h, 1 µM (%)

[[record]]
compound_structure = "Cc1nn(-c2cccnc2)c(C)c1-c1cc(N2CC3CCC(C2)O3)nc2c(-c3ccn[nH]3)cnn12.O=C(O)/C=C/C(=O)O"
experimental_endpoint = "activity at 1 h, 1 µM"
value_reported = 73.3


* * *

experimental.system: CYP2C8 (Homo sapiens, UniProt P10632)
Sequence (P10632 whole entry): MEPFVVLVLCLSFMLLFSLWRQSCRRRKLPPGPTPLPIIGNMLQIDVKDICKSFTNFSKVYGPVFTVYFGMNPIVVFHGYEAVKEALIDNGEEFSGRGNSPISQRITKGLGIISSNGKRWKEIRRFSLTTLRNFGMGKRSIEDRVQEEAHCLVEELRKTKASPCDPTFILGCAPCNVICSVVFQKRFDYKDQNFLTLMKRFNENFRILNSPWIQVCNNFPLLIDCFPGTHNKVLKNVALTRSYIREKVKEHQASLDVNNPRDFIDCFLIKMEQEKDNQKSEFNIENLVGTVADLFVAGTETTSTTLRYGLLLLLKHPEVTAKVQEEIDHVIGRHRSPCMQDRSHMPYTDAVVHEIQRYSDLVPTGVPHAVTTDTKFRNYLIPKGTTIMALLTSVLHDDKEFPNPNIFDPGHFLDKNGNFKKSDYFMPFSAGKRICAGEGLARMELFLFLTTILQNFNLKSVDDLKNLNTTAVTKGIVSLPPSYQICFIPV
assay.comment: Inhibition of recombinant human CYP2C8 assessed as residual activity at 1 uM in the presence of NADPH incubated for 60 mins by LC-MS/MS analysis relative to control
Format: ADME
stated.conditions: read-out: Activity
experimental.endpoint: activity at 1 h, 1 µM

[[record]]
compound_structure = "Cc1nn(-c2cccnc2)c(C)c1-c1cc(N2CC3CCC(C2)O3)nc2c(-c3ccn[nH]3)cnn12.O=C(O)/C=C/C(=O)O"
value_reported = "16.3%"


The reported measurements were obtained from ChEMBL document CHEMBL6103629.
